System: crabgrass, large (large crabgrass, Digitaria sanguinalis)
Assay: Test A pre-/postemergence: crabgrass, large
Type: in vivo
Conditions: Preemergence, 125 g ai/ha; 0 to 100 scale (0 no effect, 100 complete control)
ENDPOINT: Plant response rating, Crabgrass, Large
Keep it simple and answer with nothing but the number.

Observe how each entry below is paired with its result.
COc1cc(Cc2nn(-c3ccc(C(F)(F)F)cc3)nc2C)ccn1 :: 0
Cc1nn(-c2ccc(F)cc2)nc1Oc1ccnc(C(F)(F)F)n1 :: 100

Let us examine a further case.
Req: Reported Plant response rating, Crabgrass, Large, molecule Cc1nn(-c2ccc(F)cc2)nc1Oc1nccc(C(F)(F)F)n1 : ____
Resp: 0

====

Tested on: surinam grass (Brachiaria decumbens)
Test: Test C pre-/postemergence: surinam grass
Format: in vivo
Conditions: Preemergence, 125 g ai/ha; scale 0 to 100, 0 no effect, 100 complete control
ENDPOINT: Plant response rating, Surinam Grass
Keep the answer to the number alone.

Below: 6 compounds and their reported Plant response rating, Surinam Grass.
Cc1nn(-c2ccc(C(F)(F)F)cc2)nc1Oc1ccnc(C(F)(F)F)c1 :: 98
COc1nn(-c2cccc(F)c2)nc1Cc1ccnc(C(F)(F)F)c1 :: 85
Cc1nn(-c2ccc(C(F)(F)F)c(F)c2)nc1Oc1ccnc(C(F)(F)F)c1 :: 75
FC(F)(F)COc1nn(-c2ccc(C(F)(F)F)cc2)nc1Cc1ccnc(C(F)(F)F)c1 :: 60
Fc1ccc(-n2nc(Cc3ccnc(C(F)(F)F)c3)c(OC(F)F)n2)cc1 :: 55
Cc1nn(-c2ccc(C(F)(F)F)cn2)nc1Cc1cccc(C(F)(F)F)c1 :: 80

Req: Provide value of Plant response rating, Surinam Grass for this record tested with surinam grass (Brachiaria decumbens): Cc1nn(-c2ccc(C(F)(F)F)cn2)nc1Oc1ccnc(C(F)(F)F)c1
Resp: 100

====

Tested on: barley, winter (winter barley, Hordeum vulgare)
Test: Test D pre-/postemergence: barley, winter
Assay type: in vivo
Conditions: Postemergence, 62 g ai/ha; scale 0 to 100 (0 no effect, 100 complete control)
ENDPOINT: Plant response rating: Barley, Winter
Field format: numeric only.

Look over these answered cases.
Cc1nn(-c2ccc(C(F)(F)F)cc2)nc1Oc1ccnc(C(F)(F)F)c1 [Compound 120] :: 20
FC(F)(F)COc1nn(-c2ccc(C(F)(F)F)cc2)nc1Cc1ccnc(C(F)(F)F)c1 [Compound 14] :: 25

Req: I am curious: what Plant response rating: Barley, Winter value has been reported for Cc1nn(-c2ccc(C(F)(F)F)cn2)nc1Cc1cccc(C(F)(F)F)c1 [Compound 106] ?
Resp: 5

Req: I'd like to know its Plant response rating: Barley, Winter. The compound in question is Cc1nn(-c2ccc(C(F)(F)F)cn2)nc1Oc1ccnc(C(F)(F)F)c1 [Compound 23]
Resp: 10

====

System: morningglory (Ipomoea spp.)
Experiment: Test A pre-/postemergence: morningglory
Type: in vivo
Settings: Preemergence, 125 g ai/ha; 0 to 100 scale where 0 is no effect and 100 is complete control
ENDPOINT: Plant response rating, Morningglory
Would you mind answering with just the numeric figure?

Solved cases (3 shown):
COc1nn(-c2ccc(C(F)(F)F)cc2)nc1Cc1ccnc(C(F)F)c1 :: 70
CCCc1nn(-c2ccc(C(F)(F)F)cc2)nc1Oc1ccnc(C(F)(F)F)c1 :: 70
Cc1nn(-c2ccc(F)cc2)nc1Oc1cccc(C(F)(F)F)c1 :: 0

Req: What measured Plant response rating, Morningglory is associated with CCOc1nn(-c2ccc(F)cc2)nc1C(=O)c1ccnc(C(F)(F)F)c1 on morningglory (Ipomoea spp.)?
Resp: 20

Req: Form field - read-out: Plant response rating, Morningglory; system: morningglory (Ipomoea spp.); submitted item: Cc1nn(-c2ccc(F)cc2)nc1Cc1cccc(C(F)(F)F)c1
Resp: 0

Req: For the record CCCc1nn(-c2ccc(F)c(F)c2)nc1Oc1ccnc(C(F)(F)F)c1 , what value of Plant response rating, Morningglory is listed for morningglory (Ipomoea spp.)?
Resp: 60

Req: Form entry - test system: morningglory (Ipomoea spp.); read-out: Plant response rating, Morningglory; compound: COc1nn(-c2cccc(F)c2)nc1Cc1ccnc(C(F)(F)F)c1
Resp: 50

Req: # returns recorded Plant response rating, Morningglory (system: morningglory (Ipomoea spp.)) for CCCc1nn(-c2ccc(F)cc2)nc1Oc1ccnc(C(F)(F)F)c1
Resp: 20

Req: Request body: readout Plant response rating, Morningglory, system morningglory (Ipomoea spp.), query Cc1nn(-c2ccc(C(F)(F)F)cc2)nc1Oc1cccc(C(F)(F)F)c1 . Return the value.
Resp: 0

The origin of these recorded values is patent US9302999B2.
